Examples of compounds with documented growth follow.
System: 786-0 renal
Assay: NCI-60 one-dose screen, 48 h (100 = growth as untreated, 0 = no growth, -100 = all killed)
Conditions: 10 µM unless noted
Compounds without any hit were thinned out: in the full panel of roughly 83,000, 20% have a hit. The source made the active and inactive calls. How the source made its calls: active means growth percent below 10; inactive means the rest.
readout.name: growth

>>> result_value("COc1ccccc1C(=O)/C=C/c1cc2cccc(OC)c2[nH]c1=O")
"9.27% (active)"
>>> result_value("COC(=O)c1ccc2c(c1)n(Cc1ccc3ccccc3c1)c[n+]2Cc1ccc2ccccc2c1")
"70.3% (inactive)"
>>> result_value("O=c1c2ccccc2n(CC(O)CN2CCCC2)c2c(Br)cccc12 (stereo unspecified)")
"98.8% (inactive)"
>>> result_value("COc1ccc(C2CC(c3ccc(OC)cc3O)=NN2c2ccc(S(N)(=O)=O)cc2)cc1 (stereo unspecified)")
"38.5% (inactive)"
>>> result_value("COc1ccc(C(=O)c2cc(F)c(F)c(OC)c2F)cc1OC(=O)CCl")
"89.6% (inactive)"
>>> result_value("CCC[S@@](=O)c1ccc2nc(NC(=O)OC)[nH]c2c1")
"91.6% (inactive)"
>>> result_value("Nc1cccc(C(=O)Nc2ccc3c(O)c(N=Nc4ccc(N=Nc5ccc(S(=O)(=O)O)cc5)cc4)c(S(=O)(=O)O)cc3c2)c1")
"98.1% (inactive)"
>>> result_value("OCCNc1nc(NCCO)nc(Nc2ccc(C3=NN(c4ccc(Cl)cc4)C(c4ccc(Cl)cc4)C3)cc2)n1 (stereo unspecified)")
"16.7% (inactive)"
>>> result_value("N#Cc1c(-c2ccc(F)cc2)nc(N/N=C/c2cccc(O)c2)nc1N1CCOCC1")
"65.1% (inactive)"
>>> result_value("COc1ccc2c(c1)Oc1nc(N)c(C#N)c(N)c1C2Sc1ccc(O)cc1 (stereo unspecified)")
"106% (inactive)"
>>> result_value("O=C(CCc1nnco1)c1nc2ccc([N+](=O)[O-])cc2[nH]1")
"111% (inactive)"
>>> result_value("COc1ccc([C@H]2[C@@H](F)C(=O)N2c2cc(OC)c(OC)c(OC)c2)cc1F")
"22.9% (inactive)"
>>> result_value("CCOC(=O)c1ccc(Nc2ncnc3ccc(NC(=O)c4ccccc4)cc23)cc1")
"86.8% (inactive)"
>>> result_value("O=C(/C(=C\\c1c(-c2ccccc2)[nH]c2ccccc12)S(=O)(=O)c1ccccc1)c1ccccc1")
"68.1% (inactive)"
>>> result_value("COC1=CC=CC2(OC)C3(O)CCCc4cccc(c43)N3C(=O)COC132 (stereo unspecified)")
"102% (inactive)"
>>> result_value("COc1ccc(/C=C(/C(=O)N2CCCC2)c2cc(OC)c(OC)c(OC)c2)cc1")
"35.3% (inactive)"
>>> result_value("COc1ccc(-n2cc(-c3ccc(Cl)c(Cl)c3)[nH]c2=O)cc1OC")
"59.5% (inactive)"
>>> result_value("CCc1c(C(=O)N[C@@H](C(=O)OCc2ccccc2)C(C)O)[nH]c2ccc(Cl)cc12 (stereo partly specified)")
"11.1% (inactive)"
>>> result_value("O=C(CN1N=C(c2ccc(F)cc2)CCC1=O)Nc1nc2ccccc2s1")
"-90.2% (active)"
>>> result_value("COCCc1n(Cc2ccc3ccccc3c2)c2ccccc2[n+]1Cc1ccc2ccccc2c1")
"-94.3% (active)"
>>> result_value("C=C1C(=O)O[C@H]2[C@H]1CCC(/C=N/c1ncc(Br)cc1N)=C\\CC[C@@]1(C)O[C@@H]21")
"-13.9% (active)"
>>> result_value("COc1cc(/C=N/Nc2nc(-c3ccc(F)cc3)c(C#N)c(N3CCOCC3)n2)ccc1O")
"82% (inactive)"
>>> result_value("O=C(/C(=C/c1ccc([N+](=O)[O-])cc1)SCc1ccc(F)cc1)c1ccc(Cl)cc1")
"82.5% (inactive)"
>>> result_value("COc1ccc(C2=NN(c3ccc(S(N)(=O)=O)cc3)C(c3ccc(Cl)cc3)C2)c(O)c1 (stereo unspecified)")
"67.1% (inactive)"
>>> result_value("C=CCn1c(SCC(=O)Nc2ccc(C(=O)/C=C/c3cc(OC)c(OC)c(OC)c3)cc2)nnc1-c1ccccc1")
"93.1% (inactive)"
>>> result_value("CC1CCN(CCCCCOc2ccc3oc4cc(Cl)ccc4c(=O)c3c2)CC1")
"65.1% (inactive)"
>>> result_value("C=C(C)[C@@H]1CC[C@]2(C(=O)OCCCC[P+](c3ccccc3)(c3ccccc3)c3ccccc3)CC[C@]3(C)[C@H](CC[C@@H]4[C@@]5(C)CC[C@H](OC(=O)C(Cl)Cl)C(C)(C)[C@@H]5CC[C@]43C)[C@@H]12")
"-77.9% (active)"
>>> result_value("COc1ccc2nc3c(n2c1)C(=O)C(=O)c1ccccc1-3")
"8.6% (active)"
>>> result_value("O=C(Nc1nc2ccc(C(F)(F)F)cc2s1)c1cc(Cl)ccc1O")
"9.95% (active)"
>>> result_value("CCOCc1cc(C(C)(C)C)ccc1O")
"97.6% (inactive)"
>>> result_value("NC(N)=NC(N)=Nc1cc2ccccc2c2ccccc12")
"14.4% (inactive)"

----------
System: HS 578T breast
Assay: NCI-60 one-dose screen, 48 h (100 = growth as untreated, 0 = no growth, -100 = all killed)
Settings: 10 µM unless noted
Compounds without any hit were thinned out: in the full panel of roughly 83,000, 20% have a hit.
List of growth values.
readout.name: growth (%)

>>> result_value("COc1cccc2c1-c1ccccc1C2=O")
19.6
>>> result_value("c1ccc2nc(N3CCOCC3)c(N3CCCCC3)nc2c1")
96.9
>>> result_value("CC(=O)c1c(OCC#N)ccc2c(C)cc(=O)oc12")
106

----------
The compounds listed here are annotated with their growth.
System: EKVX NSCLC
Experiment: NCI-60 one-dose screen, 48 h (100 = growth as untreated, 0 = no growth, -100 = all killed)
Details: 10 µM unless noted
Compounds without any hit were thinned out: in the full panel of roughly 83,000, 20% have a hit.
readout.name: growth (%)

>>> result_value("COC(=O)/C=C/c1cc(OC(C)=O)c2c(c1)C(C(=O)OC)C(c1ccc(OC(C)=O)c(OC(C)=O)c1)O2 (configuration not stated)")
44.4
>>> result_value("COc1ccc(-c2nc(C#N)c(NCC(c3ccc(Cl)cc3)N3CCCCC3)o2)cc1 (configuration not stated)")
95.6
>>> result_value("Nc1c(C(=O)Nc2ccccn2)sc2nc3c(cc12)CCCCCC3")
31.8
>>> result_value("COC(=O)c1nc(-c2ccccc2)oc1S(=O)(=O)n1nc(-c2ccccc2)cc1N")
95.9
>>> result_value("COc1ccc2c(c1)C1(C(=O)N2)C(C#N)=C(c2ccccc2)Nc2c1c(-c1ccccc1)nn2-c1ccccc1 (configuration not stated)")
78.4
>>> result_value("COc1cc(C2=N/C(=C\\c3cc4ccccc4nc3Oc3ccccc3)C(=O)N2C(=N)N)cc(OC)c1OC")
72.1
>>> result_value("C=C1C(=O)O[C@H]2[C@H]1CC/C(COC(=O)CCCCCCCCC(=O)OC/C1=C/CC[C@@]3(C)O[C@H]3[C@H]3OC(=O)C(=C)[C@@H]3CC1)=C\\CC[C@@]1(C)O[C@@H]21")
8.84
>>> result_value("O=C(O)c1cc(N=Nc2ccc(-c3ccc(N=Nc4c(S(=O)(=O)O)cc5ccc(Nc6ccccc6)cc5c4O)cc3)cc2)ccc1O")
101
>>> result_value("COC(=O)c1cncc(C(=O)Nc2ccc(-n3cnc4ccccc43)cc2)c1")
100
>>> result_value("COc1ccc(C(=O)c2cc(F)c(F)c(OC)c2F)cc1OC(=O)CCl")
73.9
>>> result_value("Cc1cc(C)nc(NS(=O)(=O)c2ccc(Nc3ccc4c5c(n(CCCN(C)C)c(=O)c4c3)-c3ccccc3C5=O)cc2)n1")
90.5
>>> result_value("Cn1c2c(c3ccc(-c4ccn[nH]4)cc3c1=O)C(=O)c1ccccc1-2")
20.2
>>> result_value("CC1=C/C(=N\\N=C2/C=C(C)CC(C)(C)C2)CC(C)(C)C1")
108
>>> result_value("COc1ccc(C(=O)c2cc(OC)c(OC)c(OC)c2)cc1OC(=O)C(Cl)(Cl)Cl")
61.3
>>> result_value("Cc1nc(C)c(C)nc1C")
109
>>> result_value("C=C(C)[C@@H]1CC[C@]2(C(=O)O)CC[C@]3(C)[C@H](CC[C@@H]4[C@@]5(C)C[C@@H](CC#Cc6ccccc6C)C(=O)C(C)(C)[C@@H]5CC[C@]43C)[C@@H]12")
28.1
>>> result_value("CCCCn1c(=O)c(/C=C/C(=O)/C=C/c2ccc(O)c(OC)c2)cc2ccc(Cl)cc21")
40.1
>>> result_value("NC(=O)c1ccc(C2C3=C(CCCC3=O)OC3=C2C(=O)c2ccccc2C3=O)cc1 (configuration not stated)")
24.6
>>> result_value("COc1ccc(-c2cc(-c3nnc(SCC(=O)Nc4ccc(C(C)=O)cc4)o3)c3ccccc3n2)cc1")
23.2
>>> result_value("C#Cc1ccccc1NC(=O)c1sc2nc3c(cc2c1N)CCCCC3")
84.8
>>> result_value("COc1ccc(-c2nnc(N3CCN(C(=O)CN4CCN(c5ccccc5)CC4)CC3)nc2-c2ccc(OC)cc2)cc1")
13
>>> result_value("COc1ccc(NC(=O)c2sc3nc(C)c(C(C)=O)cc3c2N)cc1")
97.2
>>> result_value("CC(=O)Oc1ccc(O)cc1")
103
>>> result_value("O=[N+]([O-])c1ccc(Oc2ccc(-c3ccccc3)cc2)cc1")
85.1
>>> result_value("CCCn1c(N)c(C(N)=O)sc1=S")
116
>>> result_value("COc1ccc(-c2[nH]c3ccccc3c2C=C(C#N)C#N)cc1")
12.4
>>> result_value("COC(=O)[C@]1(C)CCC[C@]2(C)[C@H]3C[C@H]4C(C(C)C)=C[C@]3(CC[C@H]21)[C@@H]1C(=O)N(CCC#N)C(=O)[C@@H]14")
79.5
>>> result_value("CC1(C)Cc2c(Br)c(Br)c(Br)c(OCC(O)CN3CCOCC3)c2O1 (configuration not stated)")
102
>>> result_value("Cc1c(Cl)cccc1NC(=O)c1sc2nc3c(cc2c1N)CCCCC3")
42.2
>>> result_value("Cc1c(O)c(=O)ccn1-c1nc2ccccc2s1")
45.3
>>> result_value("COc1cc(NC(=O)COc2cc(C)nc3ccc(OC)cc23)cc(OC)c1")
91.5
>>> result_value("COc1ccc(Cl)c([N+](=O)[O-])c1")
103
